Values compiled from patent US20230174523A1.

studySystem: TRAP1 enzyme (Homo sapiens)
Sequence (Q12931 60-704): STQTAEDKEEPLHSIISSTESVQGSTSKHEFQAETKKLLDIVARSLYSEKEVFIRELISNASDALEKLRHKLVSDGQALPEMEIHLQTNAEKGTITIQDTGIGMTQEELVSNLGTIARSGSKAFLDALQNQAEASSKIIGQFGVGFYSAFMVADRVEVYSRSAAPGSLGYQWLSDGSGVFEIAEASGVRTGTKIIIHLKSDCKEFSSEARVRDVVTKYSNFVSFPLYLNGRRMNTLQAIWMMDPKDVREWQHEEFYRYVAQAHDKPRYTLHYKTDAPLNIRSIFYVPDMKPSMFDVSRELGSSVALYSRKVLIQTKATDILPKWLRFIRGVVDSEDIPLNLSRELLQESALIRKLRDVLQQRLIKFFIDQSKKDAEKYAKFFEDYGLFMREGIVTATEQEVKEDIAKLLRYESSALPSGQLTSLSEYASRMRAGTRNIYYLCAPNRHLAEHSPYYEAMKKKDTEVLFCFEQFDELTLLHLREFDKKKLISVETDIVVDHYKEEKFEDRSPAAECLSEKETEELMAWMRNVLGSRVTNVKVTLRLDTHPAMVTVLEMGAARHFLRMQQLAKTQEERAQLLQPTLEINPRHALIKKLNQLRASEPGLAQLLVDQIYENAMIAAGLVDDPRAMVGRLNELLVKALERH
experiment: ADP Glo assay of TRAP1 ATPase activity
Type: biochemical
runParameters: read-out: ADP GLO DRC: Mean Emax
Item-by-item account of Emax

# count of solved cases: 2
# query: Emax | item COc1ccc(NC(=O)c2cc(C)cs2)cc1S(=O)(=O)Nc1c(C)cccc1C | system: TRAP1 enzyme (Homo sapiens)
160 to 199%

Same read-out for COc1ccc(NC(=O)c2cn(C)c3ncccc23)cc1S(=O)(=O)Nc1ccc(Cl)cc1 ?
160 to 199%

Others:
Request body: readout Emax, system TRAP1 enzyme (Homo sapiens), query CCn1nc(C(C)C)cc1C(=O)Nc1ccc(OC)c(S(=O)(=O)Nc2c(C)cccc2C)c1 . Return the value.
200 to 300%

Do the same for COc1ccc2oc(C(=O)Nc3ccc(OC)c(S(=O)(=O)Nc4c(C)cccc4C)c3)cc2c1 please
160 to 199%

// query: COc1ccc(NC(=O)c2cccc(N3CCCC3=O)c2)cc1S(=O)(=O)Nc1c(C)cccc1C
200 to 300%

Try the compound COc1ccc(NC(=O)c2ccc(S(=O)(=O)N(C)C)cc2)cc1S(=O)(=O)Nc1c(C)cccc1C
160 to 199%

Thanks! And COc1cc(C(=O)Nc2ccc(F)c(S(=O)(=O)Nc3ccc(Cl)cc3)c2)cc(Cl)c1OC ?
123 to 159%

Again, but for CCc1ccc(NC(=O)c2cnn(-c3ccc(Cl)cc3)c2C)cc1S(=O)(=O)Nc1ccc(Cl)cc1
123 to 159%
